Value source: patent US20250026766A1

Target: Pol Theta (1-894) (Homo sapiens (Human), UniProt O75417)
Sequence (O75417 1-894): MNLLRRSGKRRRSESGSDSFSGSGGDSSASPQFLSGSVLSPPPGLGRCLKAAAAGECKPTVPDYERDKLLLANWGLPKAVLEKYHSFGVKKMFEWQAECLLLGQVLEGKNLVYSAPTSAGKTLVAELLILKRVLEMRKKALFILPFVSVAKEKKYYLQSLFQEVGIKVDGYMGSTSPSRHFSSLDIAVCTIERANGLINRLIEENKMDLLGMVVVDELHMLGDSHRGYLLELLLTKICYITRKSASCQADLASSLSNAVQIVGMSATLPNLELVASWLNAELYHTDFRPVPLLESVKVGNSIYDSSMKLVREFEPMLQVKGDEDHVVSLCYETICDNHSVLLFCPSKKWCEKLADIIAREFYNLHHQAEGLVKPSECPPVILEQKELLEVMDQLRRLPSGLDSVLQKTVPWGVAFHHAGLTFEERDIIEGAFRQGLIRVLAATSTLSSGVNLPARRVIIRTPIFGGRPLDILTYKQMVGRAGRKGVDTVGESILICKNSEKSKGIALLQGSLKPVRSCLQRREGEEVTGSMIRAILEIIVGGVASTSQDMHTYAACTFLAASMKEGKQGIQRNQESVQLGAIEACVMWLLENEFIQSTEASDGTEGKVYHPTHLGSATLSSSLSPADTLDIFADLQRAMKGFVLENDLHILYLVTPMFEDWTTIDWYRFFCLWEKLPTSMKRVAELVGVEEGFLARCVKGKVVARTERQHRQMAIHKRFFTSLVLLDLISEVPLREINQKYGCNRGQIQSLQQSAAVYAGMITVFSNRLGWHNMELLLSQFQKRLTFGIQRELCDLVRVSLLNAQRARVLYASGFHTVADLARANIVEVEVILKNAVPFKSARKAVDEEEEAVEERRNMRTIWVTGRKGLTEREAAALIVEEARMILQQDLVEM
pIC50: −log10 of the molar value.
QUANTITY KIND: pIC50

(P) COc1cc(Oc2ccc3nc(NC(=O)c4cnncc4-c4ccccc4OC)sc3n2)ccc1Cl
(Q) COc1ccccc1-c1cnncc1C(=O)Nc1nc2ccc(C(=O)NC3CCOCC3)nc2s1
(R) COc1ccccc1-c1cnncc1C(=O)Nc1nc2ccc(CCc3ccc(Cl)cc3)nc2s1
Which order do these fall in by pIC50? Give them lowest to highest. Reply with the item labels sorted in the order that was asked for. Q, R, P

(P) Cc1cc(-c2cc(C#N)ccc2C2CC2)c(C(=O)Nc2nc3ccc(-c4ccc(C#N)cc4)nc3s2)cn1
(Q) COc1cccc(C#N)c1-c1cc(C)ncc1C(=O)Nc1nc2ccc(-c3ccc(C#N)cc3)nc2s1
Thinking about recorded pIC50 values, which is higher, P or Q ? Answer format: the label of the selected item. P
(P: 7.82, Q: 7.24)

(1) COc1ccc(C#N)cc1-c1cc(C)ncc1C(=O)Nc1nc2ccc(-c3ccc(CC#N)cc3C)nc2s1
(2) COc1ccc(C#N)cc1-c1cc(C)ncc1C(=O)Nc1nc2ccc(-c3ccc(N(C)S(C)(=O)=O)c(C)c3)nc2s1
Thinking about recorded pIC50 values, which is higher, 1 or 2 ? Answer format: the label of the selected item. 1
